# Test system: DENV-3
# experiment-notes: Inhibition of DENV replication in Huh-7 cells, viral RNA by quantitative real time PCR
# Type: cell-based, dengue virus
# protocol-conditions: DENV-3 strain 33/0072 (clinical isolate), Huh-7 cells, 48 hrs, mean ± SD of 3 experiments
readout-label: IC50 (nM)
The response must be a number in nM with no trailing unit.

The molecule listed as C#C[C@@]1(O)[C@H](O)[C@@H](CO)O[C@H]1n1ccc2c(N)ncnc21 [NITD008, reference compound] shows IC50 equal to 500

###

# Tested on: DENV-2
# experiment-notes: Inhibition of DENV replication in Huh-7 cells, viral RNA by quantitative real time PCR
# Type: cell-based, dengue virus
# protocol-conditions: DENV-2 strain 33/0178 (clinical isolate), Huh-7 cells, 48 hrs, mean ± SD of 3 experiments
readout-label: IC50 (nM)
# unit: nM | format: bare number

Form field IC50, entry C#C[C@@]1(O)[C@H](O)[C@@H](CO)O[C@H]1n1ccc2c(N)ncnc21 [NITD008, reference compound] : 300

###

# Test system: DENV-3
# experiment-notes: Inhibition of DENV replication in Huh-7 cells, viral RNA by quantitative real time PCR
# Format: cell-based, dengue virus
# protocol-conditions: DENV-3 strain H87, Huh-7 cells, 48 hrs, mean ± SD of 3 experiments
# Experimental: ^a Each experiment was done in duplicate. The mean and standard deviation shown represent 3 independent (different date) experiments for each virus tested. […] In this study, we used a quantitative real time PCR method to quantitate dengue viral RNA in Huh-7 in the presence of inhibitors. Viral RNA and endogenous 18S rRNA control (Applied Bio System) was quantified by a real time PCR assay using the following primers. […] Relative quantification was calculated using the following formula. […]
readout-label: pIC50
In textbook form, pIC50 equals minus log to base ten of the concentration in mol/L.

// field: pIC50; key: C#C[C@@]1(O)[C@H](O)[C@@H](CO)O[C@H]1n1ccc2c(N)ncnc21 [NITD008, reference compound] ; value = 6.40

###

# experiment-notes: clinical
# protocol-conditions: human, in vivo, 3000 mg, Cmax
readout-label: Cmax (µM)
Hi! Could you send only the number? It should be in µM, unit omitted.

Cmax reported for this molecule `[N-]=[N+]=N[C@]1(CO)O[C@@H](n2ccc(N)nc2=O)[C@H](O)[C@@H]1O` : 23.9

###

# experiment-notes: clinical
# protocol-conditions: human, in vivo, 1500 mg, plasma Cmax of R1479
readout-label: Cmax

For reference, reported Cmax for `[N-]=[N+]=N[C@]1(CO)O[C@@H](n2ccc(N)nc2=O)[C@H](O)[C@@H]1O` stands at > 6 µM

###

# System: DENV-3
# experiment-notes: Inhibition of DENV replication in Huh-7 cells, viral RNA by quantitative real time PCR
# Assay type: cell-based, dengue virus
# protocol-conditions: Dengue virus, DENV3, Huh-7, 48 h, DENV-3 strain H87, Huh-7 cells, mean ± SD of 3 experiments
# Experimental: ^a Each experiment was done in duplicate. The mean and standard deviation shown represent 3 independent (different date) experiments for each virus tested. […] In this study, we used a quantitative real time PCR method to quantitate dengue viral RNA in Huh-7 in the presence of inhibitors. Viral RNA and endogenous 18S rRNA control (Applied Bio System) was quantified by a real time PCR assay using the following primers. […] Relative quantification was calculated using the following formula. […]
readout-label: pIC50
// pIC50: -log10(molar conc.)

Field pIC50 (entry `CC(C)C(=O)OC[C@@]1(N=[N+]=[N-])O[C@@H](n2ccc(N)nc2=O)[C@H](OC(=O)C(C)C)[C@@H]1OC(=O)C(C)C` ) reads 5.43
